Molecular target: NADPH oxidase 5 (Homo sapiens) (UniProt Q96PH1)
Sequence (Q96PH1 whole entry, looked up): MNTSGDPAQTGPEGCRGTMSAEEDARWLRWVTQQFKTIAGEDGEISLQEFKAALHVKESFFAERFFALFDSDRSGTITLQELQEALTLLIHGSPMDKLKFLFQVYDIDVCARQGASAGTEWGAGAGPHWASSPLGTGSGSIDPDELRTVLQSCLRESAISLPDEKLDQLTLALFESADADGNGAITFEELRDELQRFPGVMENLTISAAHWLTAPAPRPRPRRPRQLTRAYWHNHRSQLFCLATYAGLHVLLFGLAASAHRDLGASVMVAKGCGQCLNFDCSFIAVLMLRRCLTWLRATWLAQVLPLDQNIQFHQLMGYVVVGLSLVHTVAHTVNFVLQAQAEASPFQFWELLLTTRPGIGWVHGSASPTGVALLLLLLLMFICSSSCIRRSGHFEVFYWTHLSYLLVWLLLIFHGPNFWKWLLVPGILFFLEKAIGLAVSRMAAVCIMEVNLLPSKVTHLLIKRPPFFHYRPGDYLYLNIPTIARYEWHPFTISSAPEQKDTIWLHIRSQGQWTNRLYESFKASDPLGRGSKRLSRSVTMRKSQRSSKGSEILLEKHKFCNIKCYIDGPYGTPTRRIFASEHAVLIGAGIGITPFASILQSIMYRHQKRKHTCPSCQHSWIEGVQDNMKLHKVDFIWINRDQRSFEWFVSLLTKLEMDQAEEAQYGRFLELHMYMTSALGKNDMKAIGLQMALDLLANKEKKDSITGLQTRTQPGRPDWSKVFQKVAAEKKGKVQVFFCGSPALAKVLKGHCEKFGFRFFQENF
Experiment: NOX5-dependent H2O2 signal modulators, primary screen, NOX inhibitor project, cell-based, HEK293-NOX5, Amplex Red fluorescence (AID 1161)
Conditions: HEK293-NOX5, ionomycin, 45 min, higher = more signal
reported.endpoint: z-score
# print the numeric value only

Inquiry: Return z-score (reported value) for this compound: `COC(=O)[C@@]1(Cc2ccc(F)cc2)[C@H]2c3cc(C(=O)N4CCCC4)n(CC4CC4)c3C[C@H]2CN1C(=O)c1ccccc1`
Reply text: -0.81

Inquiry: Return z-score (reported value) for this compound: `C=C[C@@H](OC)[C@H](OC(=O)Nc1ccc(SC)cc1)c1ccc(OCCO)cc1`
Reply text: 0.00434

Inquiry: Return z-score (reported value) for this compound: CCOC(=O)C1=CCC(c2ccco2)N(S(=O)(=O)c2ccc(C)cc2)C1 (centres undefined)
Reply text: 0.758

Inquiry: Return z-score (reported value) for this compound: `Cc1ccc(N2C(=O)c3ccccc3[C@](C)(C(=O)NCc3ccccc3)[C@@H]2c2ccc(CO)cc2)nc1`
Reply text: -0.583

Inquiry: Return z-score (reported value) for this compound: `[N-]=[N+]=Nc1ccccc1[C@@H]1OC(c2ccc(OCCCO)cc2)=N[C@]1(Cc1ccccc1)C(=O)NCc1ccccc1`
Reply text: 0.377

Inquiry: Return z-score (reported value) for this compound: `CCCCC=C[C@@H](NC(=O)c1ccccc1)c1ccccc1`
Reply text: -2.28

Inquiry: Return z-score (reported value) for this compound: `[N-]=[N+]=Nc1ccccc1C[C@]1(C(=O)O)N=C(c2ccc(OCCCO)cc2)O[C@H]1c1ccccc1`
Reply text: 0.857

Inquiry: Return z-score (reported value) for this compound: `CO[C@H]1O[C@H](CO)[C@@H](OC(=O)Nc2ccc(C#N)cc2)[C@@H]2OC(=O)[C@H](Cc3cccc(Br)c3)C/C=C/C[C@@H](Cc3cccc(Br)c3)C(=O)O[C@@H]12`
Reply text: -0.214

Inquiry: Return z-score (reported value) for this compound: `COc1ccc(C#Cc2ccc3c(c2)[C@]2(C(=O)N3)[C@H](c3ccc(OCCO)cc3)N3[C@H](c4ccccc4)[C@H](c4ccccc4)OC(=O)[C@H]3[C@@H]2C(=O)N2CCc3cc(OC)c(OC)cc3C2)cc1`
Reply text: 0.27

Inquiry: Return z-score (reported value) for this compound: `O=C(N1CCOCC1)[C@@]1(CCS(=O)(=O)c2ccccc2)N=C(c2ccc(OCCCO)cc2)O[C@H]1c1ccccc1`
Reply text: 1.97

Inquiry: Return z-score (reported value) for this compound: O=C(NCC(O)CO)[C@@]1(CCS(=O)(=O)c2ccccc2)COC(c2ccc(OCCCO)cc2)=N1 (some centres undefined)
Reply text: 1.51

Inquiry: Return z-score (reported value) for this compound: `CCOC(=O)C1=CC[C@@H](c2ccccc2)N(S(=O)(=O)c2ccc(C)cc2)[C@H]1C=Cc1ccccc1`
Reply text: 0.884

Inquiry: Return z-score (reported value) for this compound: `C=CCNC(=O)[C@H]1[C@@H]2C(=O)O[C@@H](c3ccccc3)[C@@H](c3ccccc3)N2[C@@H](c2ccc(O)cc2)[C@]12C(=O)N(C(=O)OCCOC)c1ccc(C#CCC(C(=O)OC)C(=O)OC)cc12`
Reply text: 1.52

Inquiry: Return z-score (reported value) for this compound: `COCCOC(=O)N1C(=O)[C@@]2(c3cc(C#Cc4ccc(OC)cc4)ccc31)[C@H](c1ccc(OCCO)cc1)N1[C@H](c3ccccc3)[C@H](c3ccccc3)OC(=O)[C@H]1[C@@H]2C(=O)Nc1nc2ccccc2s1`
Reply text: 0.944
